Attribution: ChEMBL document CHEMBL1201862

- Tested on: SK-MEL-5
- EXPERIMENTAL PROTOCOL: NCI tumour cell line growth inhibition, 48 h
Calls of active or inactive are those of the source. Rule as the data show it: active = GI50 up to about 1.1 µM and inactive = higher.
Entries annotated with measured GI50

Prompt: System SK-MEL-5. Read-out GI50. Item COc1cc(S(=O)(=O)N/N=C/C=C/c2ccccc2)c(OC)cc1NC(C)=O . Report value.
Completion: 3.73 µM (inactive)

Prompt: System SK-MEL-5. Read-out GI50. Item Cc1ccc(S(=O)(=O)Oc2ccc(OS(=O)(=O)c3ccc(C)cc3)c3c2C(=O)c2ccccc2C3=O)cc1 . Report value.
Completion: > 100 µM (inactive)

Prompt: System SK-MEL-5. Read-out GI50. Item CCOC(=O)/C(=N/Nc1ccc(C)cc1)N1C(=S)N(C)N=C(C)C=C1S . Report value.
Completion: > 100 µM (inactive)

Prompt: System SK-MEL-5. Read-out GI50. Item Cc1ccc2c(c1)NC(c1ccc(C(=O)O)cc1)c1cccn1-2 (stereo unspecified) . Report value.
Completion: > 100 µM (inactive)

Prompt: System SK-MEL-5. Read-out GI50. Item Nc1nc(N)c2ncn(CCOC(c3ccccc3)P(=O)(O)O)c2n1 (stereo unspecified) . Report value.
Completion: > 100 µM (inactive)

###

Entries annotated with measured GI50
- System: CAKI-1
- EXPERIMENTAL PROTOCOL: NCI tumour cell line growth inhibition, 48 h
Active and inactive are the calls of the source. No stated cut-off is given here; in the data, active = GI50 up to about 1.1 µM and inactive = higher.

Solved entries (count: 3):
COC(=O)C1=C(OC(=O)c2ccccc2)C(C(=O)OC)[C@@]2(O)[C@@H](C(=O)OC)[C@H](C)C[C@@H]1[C@@H]2C(=O)OC (some centres undefined)
42.2 µM (inactive)
CC1(C)CC(=O)C(=CNC(N)=S)C(=O)C1
> 100 µM (inactive)
CC(C)(C)OC(=O)N[C@@H](Cc1ccccc1)C(=O)N1CC[C@@H](C(=O)N2[C@H]3CC4CC[C@@]3(CS2(=O)=O)C4(C)C)N1
> 100 µM (inactive)

With those in mind, consider the next molecule.
Prompt: Indicate its recorded GI50; the molecule in question is O=Cc1ccc2c(c1)CC1(C2)Cc2ccc(C=O)cc2C1
Completion: 44.9 µM (inactive)

###

- Test system: HT-29
- EXPERIMENTAL PROTOCOL: NCI tumour cell line growth inhibition, 48 h
Active and inactive are the calls of the source. Rule as the data show it: active = GI50 up to about 1.1 µM and inactive = higher.
READOUT NAME: GI50

NC(=S)N/N=C(\CC1OC(=O)c2ccccc21)c1ccc(Cl)cc1 (stereo not given)
27.2 µM (inactive)

Prompt: Indicate its recorded GI50; the molecule in question is Clc1ccccc1NN(Cc1ccncc1)c1ccccc1Cl
Completion: 12.6 µM (inactive)

Prompt: Indicate its recorded GI50; the molecule in question is COC1(CC[C@@H](C)COC2OC(CO)C(O)C(O)C2O)OC2C[C@H]3[C@@H]4CC[C@H]5C[C@@H](OC6OC(CO)C(OC7OC(CO)C(O)C(O)C7O)C(O)C6OC6OC(C)C(O)C(O)C6O)[C@H](O)C[C@]5(C)[C@H]4CC[C@]3(C)C2[C@@H]1C (stereo not given in full)
Completion: 2.19 µM (inactive)

Prompt: Indicate its recorded GI50; the molecule in question is CC1CC[C@@]2(OC1)O[C@H]1[C@H](O)[C@H]3[C@@H]4CC[C@H]5C[C@@H](OC6OC(CO)C(OC7OC(CO)C(O)C(OC8OCC(O)C(O)C8O)C7OC7OC(CO)C(O)C(O)C7OC7OC(CO)C(O)C(O)C7O)C(O)C6O)[C@H](O)C[C@]5(C)[C@H]4CC[C@]3(C)[C@H]1[C@@H]2C (stereo not given in full)
Completion: > 10 µM (inactive)

###

- Tested on: HOP-92
- EXPERIMENTAL PROTOCOL: NCI tumour cell line growth inhibition, 48 h
Activity calls are given as the source filed them. Cut-off read from the data, not from the text of the source: active = GI50 up to about 1.1 µM and inactive = higher.
READOUT NAME: GI50

O=c1[nH]c2cc(Cl)ccc2nc1/C(=N/Nc1ccccc1)C(O)c1ccco1 (stereo not given)
> 100 µM (inactive)
CCc1n[nH]c(=O)n1NC(=O)CCCC(=O)O
> 100 µM (inactive)
COc1cc(C(=O)CC2(O)C(=O)Nc3c(Cl)cc(Cl)cc32)ccc1O (stereo not given)
23.8 µM (inactive)
CC1(C)CC(=O)C(CC(C(=O)C(=O)Nc2cc(C(F)(F)F)ccc2Cl)C(=O)c2ccco2)C(=O)C1 (stereo not given)
> 100 µM (inactive)

With those in mind, consider the next compound.
Prompt: Indicate its recorded GI50; the compound in question is CC(C)(C)C1(c2ccc(C3(c4ccccc4)Oc4ccccc4S3)[nH]2)Oc2ccccc2S1 (stereo not given)
Completion: 26.8 µM (inactive)

###

- Test system: RXF 393
- EXPERIMENTAL PROTOCOL: NCI tumour cell line growth inhibition, 48 h
The source made the active and inactive calls. Rule as the data show it: active = GI50 up to about 1.1 µM and inactive = higher.
// allowed return values: active, inactive

Here are 3 compounds together with their reported answers.
Cn1ccnc1Sc1ccc(/C=N/NC(=O)c2ccccc2O)cc1[N+](=O)[O-]
inactive
O=[N+]([O-])c1ccc(O)c(/C=N/c2nc(-c3ccccc3)cs2)c1
inactive
CC(C)(C)C1=CC(=CC=C2C=CN(CCCCCCCCCCCO)C=C2)C=C(C(C)(C)C)C1=O
active

Prompt: Short answer needed: outcome of this test for COc1cc(/C=C2/C(=O)N(C(=O)c3ccccc3O)N=C2C)cc(OC)c1OC ?
Completion: active

Prompt: Short answer needed: outcome of this test for NC(=S)NS(=O)(=O)c1ccc(F)cc1 ?
Completion: inactive

###

- System: HL-60
- EXPERIMENTAL PROTOCOL: NCI tumour cell line growth inhibition, 48 h
Active and inactive are the calls of the source. No stated cut-off is given here; in the data, active = GI50 up to about 1.1 µM and inactive = higher.
// allowed return values: y for active, n for inactive

Here are 5 molecules together with their reported answers.
N#CN1CCC=C(c2cc3ccccc3[nH]2)C1
n
COc1cc(/C=C2/SC(c3ccccc3)N(c3cc(Cl)ccc3Cl)C2=O)cc(OC)c1OC (stereo not drawn)
n
CC(C)C1OC(N)=C(C#N)C1(C#N)C#N (stereo not drawn)
n
NS(=O)(=O)c1ccc(NC(=O)c2cccc3cc4ccccc4nc23)cc1
n
CCOC(=O)/C(=C\NCc1ccc2c(c1)OCO2)c1nc2ccccc2[nH]1
n

Prompt: Short answer needed: outcome of this test for N=C(N)SC1c2ccccc2-c2cc([N+](=O)[O-])ccc21 (stereo not drawn) ?
Completion: n

Prompt: Short answer needed: outcome of this test for O=C(O)Cc1ccc(Oc2nc3ccccc3nc2C(=O)O)cc1 ?
Completion: y

Prompt: Short answer needed: outcome of this test for O=C(C[C@@H]1CCCN2CCCC[C@H]12)N1c2ccccc2Sc2ccc(Cl)cc21 ?
Completion: n

Prompt: Short answer needed: outcome of this test for CCOC(=O)C1C(NC(N)=O)N(Cc2ccccc2)C(=O)N1Cc1ccccc1 (stereo not drawn) ?
Completion: n

Prompt: Short answer needed: outcome of this test for CCN(C(=N)C#N)c1ccccc1 ?
Completion: n

Prompt: Short answer needed: outcome of this test for COCCOCCOCCC(=O)NC1CC2CCC1(C)C2(C)C (stereo not drawn) ?
Completion: n

Prompt: Short answer needed: outcome of this test for CCn1c(-c2ccc(/N=N/Nc3ccc(-c4n[nH]c(=S)n4CC)cc3)cc2)n[nH]c1=S ?
Completion: n

Prompt: Short answer needed: outcome of this test for O=c1oc2ncccc2n1Cc1ccc([N+](=O)[O-])cc1 ?
Completion: n

Prompt: Short answer needed: outcome of this test for N#C/C(=C\c1ccc(Cl)cc1)c1nc(-c2cc3ccccc3oc2=O)cs1 ?
Completion: n

###

- Test system: TK-10
- EXPERIMENTAL PROTOCOL: NCI tumour cell line growth inhibition, 48 h
Activity calls are given as the source filed them. Cut-off read from the data, not from the text of the source: active = GI50 up to about 1.1 µM and inactive = higher.
// allowed return values: active, inactive

Here are 4 molecules together with their reported answers.
CC1CC[C@@]2(OC1)O[C@H]1[C@H](O)[C@H]3[C@@H]4CC[C@H]5C[C@@H](OC6OC(CO)C(OC7OC(CO)C(O)C(OC8OCC(O)C(O)C8O)C7OC7OC(CO)C(O)C(O)C7OC7OC(CO)C(O)C(O)C7O)C(O)C6O)[C@H](O)C[C@]5(C)[C@H]4CC[C@]3(C)[C@H]1[C@@H]2C (some centres undefined)
inactive
CC1(C)OC(C(C)(C)O)C(C(C)(C)O)O1 (centres undefined)
inactive
c1ccc(-c2nc3ccccc3n3nnnc23)cc1
inactive
O=C1c2scc(-c3ccc(F)cc3)c2-n2cccc21
inactive

Prompt: Short answer needed: outcome of this test for CCN(CC)c1ccc(/N=N\c2ccc(-c3nc4ccc[n+](C)c4s3)cc2)cc1 ?
Completion: inactive

Prompt: Short answer needed: outcome of this test for COc1cccc(NC(=O)CC(=O)N2N=C(C)C(/N=N/c3ccc(S(=O)(=O)CCOS(=O)(=O)O)cc3)C2=O)c1 (centres undefined) ?
Completion: inactive

Prompt: Short answer needed: outcome of this test for NC(=O)CCC(N=C(N)c1csc(C2OC(CO)C(O)C2O)n1)C(=O)O (centres undefined) ?
Completion: inactive

Prompt: Short answer needed: outcome of this test for Nc1cc(C(=O)O)nc(O)n1 ?
Completion: inactive

Prompt: Short answer needed: outcome of this test for O=C(Nc1nc2ccc([N+](=O)[O-])cc2s1)c1cc([N+](=O)[O-])ccc1Cl ?
Completion: inactive

Prompt: Short answer needed: outcome of this test for COC1OC(=O)C(OC)C(OC)C1OC (centres undefined) ?
Completion: inactive

Prompt: Short answer needed: outcome of this test for CCC1(O)C(=O)OCc2c1cc1n(c2=O)Cc2cc3cc(OC)c(OC)cc3nc2-1 (centres undefined) ?
Completion: inactive

Prompt: Short answer needed: outcome of this test for CCSC12OC3(CCCCCN3C1=O)C1C(=O)N(c3ccccc3)C(=O)C12 (centres undefined) ?
Completion: inactive

Prompt: Short answer needed: outcome of this test for COC(=O)c1cc2c(o1)Sc1ccccc1NC2=O ?
Completion: inactive

Prompt: Short answer needed: outcome of this test for CCOc1ccc(/N=N/c2ccc(-c3ccc(/N=N/c4c(O)ccc5cc(S(=O)(=O)O)cc(S(=O)(=O)O)c45)cc3)cc2)cc1 ?
Completion: inactive

Prompt: Short answer needed: outcome of this test for O=C1N[C@@H]2CCCC[C@@H]2C12CCCCC2 ?
Completion: inactive

Prompt: Short answer needed: outcome of this test for N=C(N)SC1c2ccccc2-c2cc([N+](=O)[O-])ccc21 (centres undefined) ?
Completion: inactive
